Measured Target: Gal-1 (Homo sapiens)
Construct: made in house; host or cells: E. coli BL21(DE3)
Assay: Pull-down assay with immobilized protein and LSM libraries
Assay type: binding
Reported Conditions: H14 library; 1:1 binding assumed; read-out: Surface mapping KD (apparent)
Attribute Measured: pKd
# pKd: negative log10 of molar concentration; output just the value

C[C@@H](CC(=O)N[C@H]1CCCC[C@@H]1C(N)=O)NC(=O)[C@H]1CCCC[C@@H]1NC(=O)[C@H]1CCCC[C@@H]1NC(=O)C[C@H](CO)NC(=O)[C@H]1CCCC[C@@H]1N; 3.41
NC(=O)[C@H]1CCCC[C@@H]1NC(=O)C[C@H](Cc1c[nH]c2ccccc12)NC(=O)[C@H]1CCCC[C@@H]1NC(=O)[C@H]1CCCC[C@@H]1NC(=O)C[C@H](Cc1ccccc1)NC(=O)[C@H]1CCCC[C@@H]1N; 4.09
CSCC[C@@H](CC(=O)N[C@H]1CCCC[C@@H]1C(N)=O)NC(=O)[C@H]1CCCC[C@@H]1NC(=O)[C@H]1CCCC[C@@H]1NC(=O)C[C@H](Cc1c[nH]c2ccccc12)NC(=O)[C@H]1CCCC[C@@H]1N; 3.84
NC(=O)[C@H]1CCCC[C@@H]1NC(=O)C[C@H](Cc1ccc(O)cc1)NC(=O)[C@H]1CCCC[C@@H]1NC(=O)[C@H]1CCCC[C@@H]1NC(=O)C[C@H](Cc1ccccc1)NC(=O)[C@H]1CCCC[C@@H]1N; 3.67

Exercise: Request the reported pKd associated with `CC(C)C[C@@H](CC(=O)N[C@H]1CCCC[C@@H]1C(=O)N[C@H]1CCCC[C@@H]1C(=O)N[C@H](CC(=O)N[C@H]1CCCC[C@@H]1C(N)=O)Cc1c[nH]c2ccccc12)NC(=O)[C@H]1CCCC[C@@H]1N`
Key: 4.42

* * *

Measured Target: Gal-1 (Homo sapiens, UniProt P09382)
Construct: made in house; host or cells: E. coli BL21(DE3)
Sequence (P09382 whole entry): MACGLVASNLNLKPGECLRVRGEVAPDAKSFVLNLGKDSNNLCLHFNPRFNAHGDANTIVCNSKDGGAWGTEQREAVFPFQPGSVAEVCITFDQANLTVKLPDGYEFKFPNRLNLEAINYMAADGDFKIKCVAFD
Assay: Pull-down assay with immobilized protein and LSM libraries
Format: binding
Reported Conditions: H14 library; 1:1 binding assumed; read-out: Surface mapping KD (apparent)
The entries below are paired with their reported Kd.
Field: numeric (µM). Do not append units.

Sample answers from the record:
NC(=O)C[C@@H](CC(=O)N[C@H]1CCCC[C@@H]1C(=O)N[C@H]1CCCC[C@@H]1C(=O)N[C@@H](CC(=O)O)CC(=O)N[C@H]1CCCC[C@@H]1C(N)=O)NC(=O)[C@H]1CCCC[C@@H]1N [H14 ND]; 229
CC(C)[C@@H](CC(=O)N[C@H]1CCCC[C@@H]1C(=O)N[C@H]1CCCC[C@@H]1C(=O)N[C@H](CC(=O)N[C@H]1CCCC[C@@H]1C(N)=O)Cc1ccc(O)cc1)NC(=O)[C@H]1CCCC[C@@H]1N [H14 VY]; 318
C[C@@H](CC(=O)N[C@H]1CCCC[C@@H]1C(N)=O)NC(=O)[C@H]1CCCC[C@@H]1NC(=O)[C@H]1CCCC[C@@H]1NC(=O)C[C@H](CCC(N)=O)NC(=O)[C@H]1CCCC[C@@H]1N [H14 QA]; 349
CC(C)[C@@H](CC(=O)N[C@H]1CCCC[C@@H]1C(=O)N[C@H]1CCCC[C@@H]1C(=O)N[C@H](CC(=O)N[C@H]1CCCC[C@@H]1C(N)=O)Cc1ccccc1)NC(=O)[C@H]1CCCC[C@@H]1N [H14 VF]; 93
NC(=O)CC[C@@H](CC(=O)N[C@H]1CCCC[C@@H]1C(=O)N[C@H]1CCCC[C@@H]1C(=O)N[C@@H](CCC(=O)O)CC(=O)N[C@H]1CCCC[C@@H]1C(N)=O)NC(=O)[C@H]1CCCC[C@@H]1N [H14 QE]; 295

Exercise: Field request: Kd | item: CSCC[C@@H](CC(=O)N[C@H]1CCCC[C@@H]1C(=O)N[C@H]1CCCC[C@@H]1C(=O)N[C@H](CC(=O)N[C@H]1CCCC[C@@H]1C(N)=O)Cc1c[nH]c2ccccc12)NC(=O)[C@H]1CCCC[C@@H]1N [H14 MW]
Key: 141

Exercise: Request the reported Kd associated with NC(=O)[C@H]1CCCC[C@@H]1NC(=O)C[C@H](Cc1c[nH]c2ccccc12)NC(=O)[C@H]1CCCC[C@@H]1NC(=O)[C@H]1CCCC[C@@H]1NC(=O)C[C@H](Cc1c[nH]c2ccccc12)NC(=O)[C@H]1CCCC[C@@H]1N [H14 WW]
Key: 30

Exercise: For CC(C)[C@@H](CC(=O)N[C@H]1CCCC[C@@H]1C(N)=O)NC(=O)[C@H]1CCCC[C@@H]1NC(=O)[C@H]1CCCC[C@@H]1NC(=O)C[C@H](C)NC(=O)[C@H]1CCCC[C@@H]1N [H14 AV] , what is its reported Kd?
Key: 100

Exercise: Look at this compound and give its reported Kd. C[C@@H](O)[C@@H](CC(=O)N[C@H]1CCCC[C@@H]1C(=O)N[C@H]1CCCC[C@@H]1C(=O)N[C@@H](CC(=O)O)CC(=O)N[C@H]1CCCC[C@@H]1C(N)=O)NC(=O)[C@H]1CCCC[C@@H]1N [H14 TD]
Key: 326

Exercise: Find the recorded Kd belonging to N=C(N)NCCC[C@@H](CC(=O)N[C@H]1CCCC[C@@H]1C(N)=O)NC(=O)[C@H]1CCCC[C@@H]1NC(=O)[C@H]1CCCC[C@@H]1NC(=O)C[C@H](CCC(N)=O)NC(=O)[C@H]1CCCC[C@@H]1N [H14 QR] and report it.
Key: 71

Exercise: For the compound shown here, CC[C@H](C)[C@@H](CC(=O)N[C@H]1CCCC[C@@H]1C(=O)N[C@H]1CCCC[C@@H]1C(=O)N[C@H](CC(=O)N[C@H]1CCCC[C@@H]1C(N)=O)C(C)C)NC(=O)[C@H]1CCCC[C@@H]1N [H14 IV] , give the reported Kd.
Key: 57

Exercise: Any idea what its Kd is? The compound is CC[C@H](C)[C@@H](CC(=O)N[C@H]1CCCC[C@@H]1C(=O)N[C@H]1CCCC[C@@H]1C(=O)N[C@@H](C)CC(=O)N[C@H]1CCCC[C@@H]1C(N)=O)NC(=O)[C@H]1CCCC[C@@H]1N [H14 IA]
Key: 247

Exercise: For the compound shown here, NCCCC[C@@H](CC(=O)N[C@H]1CCCC[C@@H]1C(N)=O)NC(=O)[C@H]1CCCC[C@@H]1NC(=O)[C@H]1CCCC[C@@H]1NC(=O)C[C@H](CO)NC(=O)[C@H]1CCCC[C@@H]1N [H14 SK] , give the reported Kd.
Key: 438

Exercise: Report Kd for CC[C@H](C)[C@@H](CC(=O)N[C@H]1CCCC[C@@H]1C(=O)N[C@H]1CCCC[C@@H]1C(=O)N[C@H](CC(=O)N[C@H]1CCCC[C@@H]1C(N)=O)Cc1ccccc1)NC(=O)[C@H]1CCCC[C@@H]1N [H14 IF] please.
Key: 33

Exercise: I would be grateful if you could share the reported Kd for CC(C)[C@@H](CC(=O)N[C@H]1CCCC[C@@H]1C(=O)N[C@H]1CCCC[C@@H]1C(=O)N[C@H](CC(=O)N[C@H]1CCCC[C@@H]1C(N)=O)Cc1c[nH]c2ccccc12)NC(=O)[C@H]1CCCC[C@@H]1N [H14 VW] .
Key: 98

* * *

Measured Target: S100B (Homo sapiens, UniProt P04271)
Construct: made in house; host or cells: Escherichia coli BL21(DE3)
Sequence (P04271 1-92): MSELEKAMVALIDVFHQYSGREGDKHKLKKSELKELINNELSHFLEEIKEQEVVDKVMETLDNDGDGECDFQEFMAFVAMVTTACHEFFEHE
Assay: Pull-down assay with immobilized protein and LSM libraries
Assay type: binding
Reported Conditions: H12 library; 1:1 binding assumed; read-out: Surface mapping KD (apparent)
Experimental: Pull-down assays with immobilized test proteins and foldameric LSM libraries were carried out. Proteins were equilibrated with LSM probes, and equilibrium bound fractions (FB) were determined from the unbound fractions measured by HPLC-MS methods. Hits were corrected with background binding of the resin. […] MS data analysis. […] Using these processing setups, all raw data files were reprocessed together and analyzed. […]
Parameter: Kd. Scope: all listed entries.
# value in µM; strip the unit string

NCCCC[C@@H](CC(=O)N[C@H]1CCC[C@@H]1C(=O)N[C@H]1CCC[C@@H]1C(N)=O)NC(=O)[C@H]1CCC[C@@H]1NC(=O)[C@H]1CCC[C@@H]1NC(=O)C[C@H](Cc1ccccc1)NC(=O)[C@H]1CCC[C@@H]1NC(=O)[C@H]1CCC[C@@H]1N [H12 FK]; 37
CC[C@H](C)[C@@H](CC(=O)N[C@H]1CCC[C@@H]1C(=O)N[C@H]1CCC[C@@H]1C(=O)N[C@@H](CCSC)CC(=O)N[C@H]1CCC[C@@H]1C(=O)N[C@H]1CCC[C@@H]1C(N)=O)NC(=O)[C@H]1CCC[C@@H]1NC(=O)[C@H]1CCC[C@@H]1N [H12 IM]; 74
NC(=O)[C@H]1CCC[C@@H]1NC(=O)[C@H]1CCC[C@@H]1NC(=O)C[C@H](CCC(=O)O)NC(=O)[C@H]1CCC[C@@H]1NC(=O)[C@H]1CCC[C@@H]1NC(=O)C[C@H](Cc1c[nH]c2ccccc12)NC(=O)[C@H]1CCC[C@@H]1NC(=O)[C@H]1CCC[C@@H]1N [H12 WE]; 229

Shifting focus to the compound that follows.
Exercise: May I ask what Kd has been recorded for CSCC[C@@H](CC(=O)N[C@H]1CCC[C@@H]1C(=O)N[C@H]1CCC[C@@H]1C(=O)N[C@@H](C)CC(=O)N[C@H]1CCC[C@@H]1C(=O)N[C@H]1CCC[C@@H]1C(N)=O)NC(=O)[C@H]1CCC[C@@H]1NC(=O)[C@H]1CCC[C@@H]1N [H12 MA] ?
Key: 224
